These data points were gathered from PubChem BioAssay AID228.

# System: BDF1 mice, Friend leukemia sc, tumor weight T/C
# protocol description: NCI In Vivo Anticancer Drug Screen. Data for tumor model Friend Virus Leukemia (Solid) (subcutaneous) in B6D2F1 (BDF1) mice
# recorded conditions: endpoint: mean tumor weight; dose: 6.0 mg/kg/injection; schedule: Q01DX011 (ip); vehicle: carboxymethylcellulose (CMC); higher = larger tumour
# Protocol: The antitumor activity of compounds was measured in mice bearing transplantable tumors. Survival or tumor size were measured and the results are expressed as the measurement made in the treated group (T) divided by the measurement made in the vehicle treated control group (C). The tumor model used in this assay is Friend Virus Leukemia (Solid) (subcutaneous) in B6D2F1 (BDF1) mice
Records with an inconclusive call do not appear.
measurement kind: T/C

These solved cases illustrate the format of a correct answer.
molecule	T/C
O=C(c1ccc(C(=O)N2CC2)cc1)N1CC1	90 % of control
O=C(Nc1ccc(C2=NCCCN2)cc1)c1ccc(NC(=O)c2ccc(C3=NCCCN3)cc2)cc1	9 % of control
CC(CCC(C)OS(C)(=O)=O)OS(C)(=O)=O (centres undefined)	98 % of control
CCCNC(=NC)c1ccc(NC(=O)c2ccc(C(=O)Nc3ccc(C(=NC)NCCC)cc3)cc2)cc1	65 % of control
NC(Cc1ccc(N(CCCl)CCCl)cc1)C(=O)O (centres undefined)	13 % of control
Nc1nc(SCc2ccccc2Cl)c2[nH]cnc2n1	67 % of control
O=C(Nc1ccc(C2=NCCCN2)cc1)c1ccc(C(=O)Nc2ccc(C3=NCCCN3)cc2)cc1	64 % of control
NCCCC(NC(=O)CCCCCCCCN=C(N)N)C(O)CCCCCCCCN=C(N)N (centres undefined)	79 % of control
ClCCn1cnc2c(SCc3ccccc3Cl)ncnc21	81 % of control
Nc1ncnc2[nH]ncc12	40 % of control

Exam item: Fill in: T/C of O=P1(N(CCCl)CCCl)NCCCO1 (centres undefined) is ___
Marked response: 89 % of control

Exam item: // next record `CCN(CC)CCNc1ccc(C)c2sc3ccccc3c(=O)c12`
Marked response: 199 % of control

Exam item: // next record `O=C1C=CC(=Nc2ccc(O)c3ncccc23)c2cccnc21`
Marked response: 71 % of control

Exam item: // next record `Cc1c2ccc3ccccc3c2c[n+]2ccccc12`
Marked response: 105 % of control

====

Collected T/C values appear next to each entry.
# Tested on: BDF1 mice, Friend leukemia sc, tumor weight T/C
# protocol description: NCI In Vivo Anticancer Drug Screen. Data for tumor model Friend Virus Leukemia (Solid) (subcutaneous) in B6D2F1 (BDF1) mice
# recorded conditions: endpoint: mean tumor weight; dose: 19.0 mg/kg/injection; schedule: Q01DX011 (ip); vehicle: carboxymethylcellulose (CMC); higher = larger tumour
Records with an inconclusive call do not appear.

These solved cases illustrate the format of a correct answer.
compound	T/C
CCOC(=O)NP(=O)(N1CC1)N1CC1	5 % of control
Clc1ccc2c(Cl)ncnc2c1	96 % of control
O=c1[nH]c2cc(Cl)c(Cl)cc2o1	90 % of control

Could you now look at the following compound, please?
Exam item: Fill in: T/C of CCCCCCCCCCCCCCCCC(C(=O)O)C(O)(CC(=O)O)C(=O)O (centres undefined) is ___
Marked response: 107 % of control

====

Collected T/C values appear next to each entry.
# Tested on: BDF1 mice, Friend leukemia sc, tumor weight T/C
# protocol description: NCI In Vivo Anticancer Drug Screen. Data for tumor model Friend Virus Leukemia (Solid) (subcutaneous) in B6D2F1 (BDF1) mice
# recorded conditions: endpoint: mean tumor weight; dose: 50.0 mg/kg/injection; schedule: Q01DX011 (ip); vehicle: saline; higher = larger tumour
Results filed as inconclusive are left out.

Exam item: Fill in: T/C of `NC(N)=N/N=C/C=N/N=C(N)N` is ___
Marked response: 189 % of control

Exam item: // next record `CC(C)NCC(=O)c1ccc(O)c(O)c1`
Marked response: 95 % of control

Exam item: // next record OCC1OC(Oc2ccc(O)cc2)C(O)C(O)C1O (stereo not given)
Marked response: 97 % of control

Exam item: // next record `CCN(CC)CCN1C(=O)c2cccc3cccc(c23)C1=O`
Marked response: 72 % of control
